# ASSAY_CONDITIONS: in 1,4-dioxane, 320.05 K
RESULT_TYPE: solubility (mole fraction)
Give the figure only, with no unit attached.

Field request: solubility (mole fraction) | item: CC(C)c1ccc2sc3ccccc3c(=O)c2c1 0.512

====

# ASSAY_CONDITIONS: in 1,4-dioxane, 307.15 K
RESULT_TYPE: solubility (mole fraction)
Give the figure only, with no unit attached.

Field request: solubility (mole fraction) | item: CC(C)c1ccc2sc3ccccc3c(=O)c2c1 0.34

====

# ASSAY_CONDITIONS: in methanol, 299.15 K
RESULT_TYPE: solubility (mole fraction)
Give the figure only, with no unit attached.

Field request: solubility (mole fraction) | item: CC(C)c1ccc2sc3ccccc3c(=O)c2c1 0.00556

====

# ASSAY_CONDITIONS: in acetone, 310.15 K
RESULT_TYPE: solubility (mole fraction)
Give the figure only, with no unit attached.

Field request: solubility (mole fraction) | item: CC(C)c1ccc2sc3ccccc3c(=O)c2c1 0.266

====

# ASSAY_CONDITIONS: in acetone, 317.15 K
RESULT_TYPE: solubility (mole fraction)
Give the figure only, with no unit attached.

Field request: solubility (mole fraction) | item: CC(C)c1ccc2sc3ccccc3c(=O)c2c1 0.358

====

# ASSAY_CONDITIONS: in acetone, 303.15 K
RESULT_TYPE: solubility (mole fraction)
Give the figure only, with no unit attached.

Field request: solubility (mole fraction) | item: CC(C)c1ccc2sc3ccccc3c(=O)c2c1 0.167

====

# ASSAY_CONDITIONS: in 1,2-dichloroethane, 326.85 K
RESULT_TYPE: solubility (mole fraction)
Give the figure only, with no unit attached.

Field request: solubility (mole fraction) | item: CC(C)c1ccc2sc3ccccc3c(=O)c2c1 0.615

====

# ASSAY_CONDITIONS: in ethyl acetate, 320.15 K
RESULT_TYPE: solubility (mole fraction)
Give the figure only, with no unit attached.

Field request: solubility (mole fraction) | item: CC(C)c1ccc2sc3ccccc3c(=O)c2c1 0.409

====

# ASSAY_CONDITIONS: in acetone, 320.15 K
RESULT_TYPE: solubility (mole fraction)
Give the figure only, with no unit attached.

Field request: solubility (mole fraction) | item: CC(C)c1ccc2sc3ccccc3c(=O)c2c1 0.383

====

# ASSAY_CONDITIONS: in toluene, 318.15 K
RESULT_TYPE: solubility (mole fraction)

Field request: solubility (mole fraction) | item: CC(C)c1ccc2sc3ccccc3c(=O)c2c1 0.489

====

# ASSAY_CONDITIONS: in ethanol, 318.15 K
RESULT_TYPE: solubility (mole fraction)
Give the figure only, with no unit attached.

Field request: solubility (mole fraction) | item: CC(C)c1ccc2sc3ccccc3c(=O)c2c1 0.154

====

# ASSAY_CONDITIONS: in methanol, 317.15 K
RESULT_TYPE: solubility (mole fraction)
Give the figure only, with no unit attached.

Field request: solubility (mole fraction) | item: CC(C)c1ccc2sc3ccccc3c(=O)c2c1 0.0196

====

# ASSAY_CONDITIONS: in toluene, 308.15 K
RESULT_TYPE: solubility (mole fraction)

Field request: solubility (mole fraction) | item: CC(C)c1ccc2sc3ccccc3c(=O)c2c1 0.374

====

# ASSAY_CONDITIONS: in ethanol, 321.15 K
RESULT_TYPE: solubility (mole fraction)
Give the figure only, with no unit attached.

Field request: solubility (mole fraction) | item: CC(C)c1ccc2sc3ccccc3c(=O)c2c1 0.26

====

# ASSAY_CONDITIONS: in toluene, 311.65 K
RESULT_TYPE: solubility (mole fraction)
Give the figure only, with no unit attached.

Field request: solubility (mole fraction) | item: CC(C)c1ccc2sc3ccccc3c(=O)c2c1 0.412

====

# ASSAY_CONDITIONS: in methanol, 302.15 K
RESULT_TYPE: solubility (mole fraction)

Field request: solubility (mole fraction) | item: CC(C)c1ccc2sc3ccccc3c(=O)c2c1 0.00643

====

# ASSAY_CONDITIONS: in 1,2-dichloroethane, 309.15 K
RESULT_TYPE: solubility (mole fraction)
Give the figure only, with no unit attached.

Field request: solubility (mole fraction) | item: CC(C)c1ccc2sc3ccccc3c(=O)c2c1 0.424

====

# ASSAY_CONDITIONS: in ethyl acetate, 327.15 K
RESULT_TYPE: solubility (mole fraction)

Field request: solubility (mole fraction) | item: CC(C)c1ccc2sc3ccccc3c(=O)c2c1 0.511

====

# ASSAY_CONDITIONS: in ethanol, 315.15 K
RESULT_TYPE: solubility (mole fraction)
Give the figure only, with no unit attached.

Field request: solubility (mole fraction) | item: CC(C)c1ccc2sc3ccccc3c(=O)c2c1 0.1

====

# ASSAY_CONDITIONS: in ethanol, 309.65 K
RESULT_TYPE: solubility (mole fraction)

Field request: solubility (mole fraction) | item: CC(C)c1ccc2sc3ccccc3c(=O)c2c1 0.0557

====

# ASSAY_CONDITIONS: in methanol, 314.15 K
RESULT_TYPE: solubility (mole fraction)

Field request: solubility (mole fraction) | item: CC(C)c1ccc2sc3ccccc3c(=O)c2c1 0.0145

====

# ASSAY_CONDITIONS: in 1,2-dichloroethane, 318.15 K
RESULT_TYPE: solubility (mole fraction)
Give the figure only, with no unit attached.

Field request: solubility (mole fraction) | item: CC(C)c1ccc2sc3ccccc3c(=O)c2c1 0.516

====

# ASSAY_CONDITIONS: in ethyl acetate, 311.65 K
RESULT_TYPE: solubility (mole fraction)
Give the figure only, with no unit attached.

Field request: solubility (mole fraction) | item: CC(C)c1ccc2sc3ccccc3c(=O)c2c1 0.283

====

# ASSAY_CONDITIONS: in toluene, 304.65 K
RESULT_TYPE: solubility (mole fraction)

Field request: solubility (mole fraction) | item: CC(C)c1ccc2sc3ccccc3c(=O)c2c1 0.332

====

# ASSAY_CONDITIONS: in acetone, 323.15 K
RESULT_TYPE: solubility (mole fraction)
Give the figure only, with no unit attached.

Field request: solubility (mole fraction) | item: CC(C)c1ccc2sc3ccccc3c(=O)c2c1 0.417

====

# ASSAY_CONDITIONS: in methanol, 305.15 K
RESULT_TYPE: solubility (mole fraction)

Field request: solubility (mole fraction) | item: CC(C)c1ccc2sc3ccccc3c(=O)c2c1 0.00761

====

# ASSAY_CONDITIONS: in toluene, 321.05 K
RESULT_TYPE: solubility (mole fraction)
Give the figure only, with no unit attached.

Field request: solubility (mole fraction) | item: CC(C)c1ccc2sc3ccccc3c(=O)c2c1 0.526

====

# ASSAY_CONDITIONS: in methanol, 308.15 K
RESULT_TYPE: solubility (mole fraction)
Give the figure only, with no unit attached.

Field request: solubility (mole fraction) | item: CC(C)c1ccc2sc3ccccc3c(=O)c2c1 0.00911

====

# ASSAY_CONDITIONS: in 1,4-dioxane, 314.05 K
RESULT_TYPE: solubility (mole fraction)

Field request: solubility (mole fraction) | item: CC(C)c1ccc2sc3ccccc3c(=O)c2c1 0.429

====

# ASSAY_CONDITIONS: in acetone, 299.15 K
RESULT_TYPE: solubility (mole fraction)
Give the figure only, with no unit attached.

Field request: solubility (mole fraction) | item: CC(C)c1ccc2sc3ccccc3c(=O)c2c1 0.126

====

# ASSAY_CONDITIONS: in 1,2-dichloroethane, 315.15 K
RESULT_TYPE: solubility (mole fraction)
Give the figure only, with no unit attached.

Field request: solubility (mole fraction) | item: CC(C)c1ccc2sc3ccccc3c(=O)c2c1 0.486

====

# ASSAY_CONDITIONS: in ethyl acetate, 323.65 K
RESULT_TYPE: solubility (mole fraction)
Give the figure only, with no unit attached.

Field request: solubility (mole fraction) | item: CC(C)c1ccc2sc3ccccc3c(=O)c2c1 0.461

====

# ASSAY_CONDITIONS: in 1,4-dioxane, 317.15 K
RESULT_TYPE: solubility (mole fraction)
Give the figure only, with no unit attached.

Field request: solubility (mole fraction) | item: CC(C)c1ccc2sc3ccccc3c(=O)c2c1 0.475

====

# ASSAY_CONDITIONS: in acetone, 307.15 K
RESULT_TYPE: solubility (mole fraction)
Give the figure only, with no unit attached.

Field request: solubility (mole fraction) | item: CC(C)c1ccc2sc3ccccc3c(=O)c2c1 0.219
